biological target: UniProt P29275
The molecules listed here are annotated with their Ki.
Give just the number in nM; leave the unit off.

Worked cases, answers included:
CCCn1c(=O)c2[nH]c(-c3ccc(OCC(=O)Nc4ccc(CC(=O)O)cc4)cc3)cc2n(CCC)c1=O
33.9
COc1cc(-c2cc3c([nH]2)c(=O)n(C)c(=O)n3C)ccc1OCC(=O)Nc1ccccc1
148
CCCn1c(=O)c2[nH]c(-c3ccc(OCC(=O)Nc4ccc(OCc5ccccc5)cc4)cc3)cc2n(CCC)c1=O
8.91
Cn1c(=O)c2[nH]c(-c3ccc(OCC(=O)Nc4nncs4)cc3)cc2n(C)c1=O
15.1
Cn1c(=O)c2[nH]c(-c3ccc(OCC(=O)NCc4ccc(F)cc4)cc3)cc2n(C)c1=O
17
CCCn1c(=O)c2[nH]c(-c3ccc(OCC(=O)Nc4cc(OC)nc(OC)n4)cc3)cc2n(CCC)c1=O
11
CCCn1c(=O)c2[nH]c(-c3ccc(OCC(=O)Nc4ccc(Cl)cc4)cc3)cc2n(CCC)c1=O
3.16
CCCn1c(=O)c2[nH]c(-c3ccc(OCC(=O)Nc4ccc(-c5ccccc5)cc4)cc3)cc2n(CCC)c1=O
16.2
COc1cc(-c2cc3c([nH]2)c(=O)n(C)c(=O)n3C)ccc1OCC(=O)NCc1ccc(Cl)cc1
186
CCCn1c(=O)c2[nH]c(-c3ccc(OCC(=O)Nc4ccccc4)cc3)c(Br)c2n(CCC)c1=O
24.5

Lookup: What is its Ki for UniProt P29275? Entry: CCCn1c(=O)c2[nH]c(-c3ccc(OCC(=O)O)cc3)c(Cl)c2n(CCC)c1=O
Found: 158

Lookup: What is its Ki for UniProt P29275? Entry: CCCn1c(=O)c2[nH]c(-c3ccc(OCC(=O)Nc4ccccc4Cl)cc3)c(Cl)c2n(CCC)c1=O
Found: 83.2

Lookup: What is its Ki for UniProt P29275? Entry: CCCn1c(=O)c2[nH]c(-c3ccc(OCC(=O)Nc4ccc(Br)cc4)cc3)nc2n(CCC)c1=O
Found: 2.4

Lookup: What is its Ki for UniProt P29275? Entry: Cn1c(=O)c2[nH]c(-c3ccc(OCC(=O)Nc4ccc([N+](=O)[O-])cc4)cc3)cc2n(C)c1=O
Found: 6.92

Lookup: What is its Ki for UniProt P29275? Entry: CCCn1c(=O)c2[nH]c(-c3ccc(OCC(=O)NCc4ccc(F)cc4)cc3)c(Cl)c2n(CCC)c1=O
Found: 174

Lookup: What is its Ki for UniProt P29275? Entry: CC(Oc1ccc(-c2cc3c([nH]2)c(=O)n(C)c(=O)n3C)cc1)C(=O)Nc1ccccc1 (stereo not drawn)
Found: 4.79

Lookup: What is its Ki for UniProt P29275? Entry: CCCn1c(=O)c2[nH]c(-c3ccc(OCC(=O)Nc4ccccc4)cc3)cc2n(CCC)c1=O
Found: 9.33

Lookup: What is its Ki for UniProt P29275? Entry: CCCn1c(=O)c2[nH]c(-c3ccc(OCC(=O)Nc4ccc(C)cn4)cc3)cc2n(CCC)c1=O
Found: 12.6

====

target: Adenosine receptor A2b (Homo sapiens) (UniProt P29275); experiment: Displacement of [3H]DPCPX from recombinant human adenosine A2B receptor expressed in HEK293 cells at 0.1 uM; assay type: cell-based
Sequence (P29275 whole entry): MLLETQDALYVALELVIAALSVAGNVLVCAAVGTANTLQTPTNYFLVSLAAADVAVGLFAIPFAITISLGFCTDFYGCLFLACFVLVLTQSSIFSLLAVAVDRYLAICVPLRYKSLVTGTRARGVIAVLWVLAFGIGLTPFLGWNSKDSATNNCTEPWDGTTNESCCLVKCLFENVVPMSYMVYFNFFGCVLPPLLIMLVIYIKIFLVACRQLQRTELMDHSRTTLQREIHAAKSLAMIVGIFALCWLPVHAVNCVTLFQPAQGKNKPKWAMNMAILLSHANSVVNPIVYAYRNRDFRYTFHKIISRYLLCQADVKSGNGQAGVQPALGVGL
The compounds listed here are annotated with their inhibition.
Form entry: enter the amount, then its unit.

COCCCn1c(=O)c2[nH]c(-c3ccc(OCC(=O)Nc4ccccc4)cc3)cc2n(CCCOC)c1=O
65%

Lookup: // lookup inhibition for Cn1c(=O)c2[nH]c(-c3cccc(OCC(=O)Nc4ccc(Br)cc4)c3)cc2n(C)c1=O
Found: 73%

Lookup: // lookup inhibition for CCCn1c(=O)c2[nH]c(-c3ccc(OCC(=O)c4c(NC(=O)O)n(C)c(=O)n(C)c4=O)cc3)cc2n(CCC)c1=O
Found: 59%

Lookup: // lookup inhibition for CCCn1c(=O)c2[nH]c(-c3ccc(OC(C)(C)C(=O)Nc4ccccc4)cc3)cc2n(CCC)c1=O
Found: 93%

Lookup: // lookup inhibition for CCCn1c(=O)c2[nH]c(-c3ccc(OCC(=O)Nc4cccc(C)n4)cc3)cc2n(CCC)c1=O
Found: 68%

Lookup: // lookup inhibition for CCCn1c(=O)c2[nH]c(-c3ccc(OC(C)C(=O)NCc4ccc(Cl)cc4)cc3)cc2n(CCC)c1=O (stereo not drawn)
Found: 94%

Lookup: // lookup inhibition for CCOC(=O)COc1ccc(-c2cc3c([nH]2)c(=O)n(C)c(=O)n3CCCOC)cc1
Found: 22%

Lookup: // lookup inhibition for Cn1c(=O)c2[nH]c(-c3ccc(OCC(=O)NCc4ccco4)cc3)cc2n(C)c1=O
Found: 52%

====

target: Adenosine receptor A2a (Homo sapiens, UniProt P29274)
Sequence (P29274 whole entry): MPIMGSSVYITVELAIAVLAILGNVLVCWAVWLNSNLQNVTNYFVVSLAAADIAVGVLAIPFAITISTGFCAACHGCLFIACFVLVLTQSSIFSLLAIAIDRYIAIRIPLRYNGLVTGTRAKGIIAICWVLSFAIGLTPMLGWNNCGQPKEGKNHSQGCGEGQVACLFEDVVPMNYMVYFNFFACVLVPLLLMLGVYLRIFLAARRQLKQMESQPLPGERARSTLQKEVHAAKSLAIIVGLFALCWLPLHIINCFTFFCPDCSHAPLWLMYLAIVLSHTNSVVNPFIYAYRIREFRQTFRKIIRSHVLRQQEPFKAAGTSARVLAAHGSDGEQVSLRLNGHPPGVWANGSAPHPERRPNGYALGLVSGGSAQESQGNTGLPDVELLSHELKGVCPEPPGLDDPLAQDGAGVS
The compounds listed here are annotated with their pKi.
Please report pKi as the negative decimal logarithm of the molar concentration, giving only the number.

Worked cases, answers included:
CCOC(=O)COc1ccc(-c2cc3c([nH]2)c(=O)n(C)c(=O)n3C)cc1
5.71
CCCn1c(=O)c2[nH]c(-c3cc(OCC(=O)c4ccc(Br)cc4)nn3C)nc2n(CCC)c1=O
7.60

Lookup: What is its pKi for Adenosine receptor A2a (Homo sapiens, UniProt P29274)? Entry: CCCn1c(=O)c2[nH]c(-c3ccc(OCC(=O)Nc4ccc(C=O)cc4)cc3)cc2n(CCC)c1=O
Found: 6.31

Lookup: What is its pKi for Adenosine receptor A2a (Homo sapiens, UniProt P29274)? Entry: CCCn1c(=O)c2[nH]c(-c3ccc(OCC(=O)NCc4ccccc4)cc3)nc2n(CCC)c1=O
Found: 7.70

Lookup: What is its pKi for Adenosine receptor A2a (Homo sapiens, UniProt P29274)? Entry: CCCn1c(=O)c2[nH]c(-c3ccc(OC(C)C(=O)Nc4ccccc4)cc3)cc2n(CCC)c1=O (stereo not drawn)
Found: 6.98

Lookup: What is its pKi for Adenosine receptor A2a (Homo sapiens, UniProt P29274)? Entry: CCCn1c(=O)c2[nH]c(-c3ccc(OCC(=O)Nc4ccc(Br)cc4)cc3)cc2n(CCC)c1=O
Found: 7.51

Lookup: What is its pKi for Adenosine receptor A2a (Homo sapiens, UniProt P29274)? Entry: CCCn1c(=O)c2[nH]c(-c3ccc(OCC(=O)Nc4ccc(NC(C)=O)cc4)cc3)cc2n(CCC)c1=O
Found: 7.20

Lookup: What is its pKi for Adenosine receptor A2a (Homo sapiens, UniProt P29274)? Entry: CCCn1c(=O)c2[nH]c(-c3ccc(OCC(=O)Nc4ccc(Cl)cc4)cc3)nc2n(CCC)c1=O
Found: 6.72

Lookup: What is its pKi for Adenosine receptor A2a (Homo sapiens, UniProt P29274)? Entry: Cn1c(=O)c2[nH]c(-c3ccc(OCC(=O)Nc4ccc(CCN)cc4)cc3)cc2n(C)c1=O
Found: 6.78

====

target: Adenosine receptor A2b (Homo sapiens) (UniProt P29275); experiment: Displacement of [3H]DPCPX from recombinant human adenosine A2B receptor expressed in HEK293 cells at 0.01 uM
Parameter measured: inhibition (%)
Give just the number in %; leave the unit off.

Worked cases, answers included:
CCCn1c(=O)c2[nH]c(-c3ccc(OCC(=O)Nc4ccccc4)cc3)c(Cl)c2n(CCC)c1=O
11
CCCn1c(=O)c2[nH]c(-c3ccc(OCC(=O)Nc4ccccc4)cc3)cc2n(C)c1=O
38

Lookup: What is its inhibition for Adenosine receptor A2b (Homo sapiens) (UniProt P29275)? Entry: CCCn1c(=O)n(C)c(=O)c2[nH]c(-c3ccc(OCC(=O)Nc4ccc5c(c4)CCC5=O)cc3)cc21
Found: 12

Lookup: What is its inhibition for Adenosine receptor A2b (Homo sapiens) (UniProt P29275)? Entry: CCn1c(=O)c2[nH]c(-c3ccc(OCC(=O)Nc4ccc(C#N)cc4)cc3)cc2n(CC)c1=O
Found: 20

====

biological target: UniProt:P29274; assay: Displacement of [3H]ZM-241385 from recombinant human adenosine A2A receptor expressed in HeLa cells at 0.1 uM
The molecules listed here are annotated with their inhibition.
Give just the number in %; leave the unit off.

Worked cases, answers included:
CCCn1c(=O)c2[nH]c(-c3ccc(OCC(=O)Nc4ccccc4)cc3OC)cc2n(CCC)c1=O
35
CCCn1c(=O)c2[nH]c(-c3ccc(OCC(=O)Nc4ccccc4F)cc3)c(Cl)c2n(CCC)c1=O
2
CCCn1c(=O)c2[nH]c(-c3ccc(OCC(=O)Nc4ccc(F)cc4)cc3)c(Cl)c2n(CCC)c1=O
54
Cn1c(=O)c2[nH]c(-c3ccc(OCC(=O)Nc4ccc(Br)cc4)cc3)cc2n(C)c1=O
12
COc1cc(-c2cc3c([nH]2)c(=O)n(C)c(=O)n3C)ccc1OCC(=O)Nc1ccc(Br)cc1
32

Lookup: // lookup inhibition for CCCn1c(=O)c2[nH]c(-c3ccc(OCC(=O)Nc4cc(C)cc(C)n4)cc3)cc2n(CCC)c1=O
Found: 27

Lookup: // lookup inhibition for CCOC(=O)COc1ccc(-c2cc3c([nH]2)c(=O)n(CC)c(=O)n3CCCOC)cc1
Found: 16

Lookup: // lookup inhibition for COc1cc(-c2cc3c([nH]2)c(=O)n(C)c(=O)n3C)ccc1OCC(=O)Nc1ccc(F)cc1
Found: 35

Lookup: // lookup inhibition for Cn1c(=O)c2[nH]c(-c3ccc(OCC(=O)Nc4nc5ccccc5[nH]4)cc3)cc2n(C)c1=O
Found: 34
